# experimental-system: PHD2181-402 (Homo sapiens, UniProt Q9GZT9)
# Construct: made in house
# Sequence (Q9GZT9 181-402): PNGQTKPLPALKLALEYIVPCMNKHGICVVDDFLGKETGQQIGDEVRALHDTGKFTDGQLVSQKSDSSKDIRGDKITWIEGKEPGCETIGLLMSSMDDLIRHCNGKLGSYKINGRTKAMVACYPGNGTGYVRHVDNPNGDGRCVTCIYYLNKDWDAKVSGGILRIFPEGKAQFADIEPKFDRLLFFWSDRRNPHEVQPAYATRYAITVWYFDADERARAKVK
# measurement-notes: bioluminescent succinate detection assay of recombinant PHD2181-402 activity/inhibition
# Assay type: biochemical
# run-conditions: calculated from measured IC50 accounting for substrate conversion; n = 4, error: SEM; read-out: True IC50 for PHD2181-402
observation-type: IC50 (mM)

(A) CC(O)CC(=O)O (centres unmarked) [3-Hydroxybutyrate]
(B) CCC(CC)C(=O)O [2-Ethylbutyrate]
(Q) Please state the entry with greater IC50 among A and B . Please indicate the selected item by its label.
(A) B
(B: 77 mM, A: 14 mM)

----------
# experimental-system: PHD2181-402 (Homo sapiens, UniProt Q9GZT9)
observation-type: pKd
Scale: negative log10 of molar concentration, which is what pKd denotes.

(Q) Request the reported pKd associated with CCCC(=O)O [Butyrate, Butyric acid]
(A) 2.70
